Target: HIF1A
Test: HeLa, 100 nM transfected, 24 h, mean of 3
Details: ASO
Bases are written 5' to 3'; sugars and linkages follow in the same order, as letters with counts (s phosphorothioate, o phosphodiester; PS: all linkages phosphorothioate). C may stand for cytosine or 5-methylcytosine; the collection does not tell. l = locked nucleic acid (LNA); d = 2'-deoxy (DNA)
# if value of caspase activation (% of PBS control) reaches 400, tag 1; if it stays below, tag -1

// below: answered sequences
(Q) I'd appreciate it if you could say whether GTTACTGCCTTCTTAC (sugars lldllddddddlddll, PS) has caspase activation (% of PBS control) at least equal to 400.
(A) -1

(Q) I'd appreciate it if you could say whether GTTACTGCCTTCTTAC (sugars l2 d13 l1, PS) has caspase activation (% of PBS control) at least equal to 400.
(A) -1

(Q) I'd appreciate it if you could say whether GGCAAGCATCCTG (sugars l2 d1 l1 d8 l1, PS) has caspase activation (% of PBS control) at least equal to 400.
(A) -1

(Q) I'd appreciate it if you could say whether GCAAGCATCCTGT (sugars ldldddddddldl, PS) has caspase activation (% of PBS control) at least equal to 400.
(A) -1

(Q) I'd appreciate it if you could say whether GTTACTGCCTTCTTAC (sugars llddlddddddldldl, PS) has caspase activation (% of PBS control) at least equal to 400.
(A) -1

New cases:
(Q) I'd appreciate it if you could say whether TTACTGCCTTCTT (sugars l3 d7 l3, PS) has caspase activation (% of PBS control) at least equal to 400.
(A) -1

---

Molecular target: HIF1A
Test: HeLa, 100 nM transfected, 24 h, mean of 3
Conditions: ASO
Bases are written 5' to 3'; sugars and linkages follow in the same order, as letters with counts (s phosphorothioate, o phosphodiester; PS: all linkages phosphorothioate). C may stand for cytosine or 5-methylcytosine; the collection does not tell. l = locked nucleic acid (LNA); d = 2'-deoxy (DNA)
measured_parameter: caspase activation (% of PBS control)
One number for each entry.

(Q) # return recorded caspase activation (% of PBS control) for entry TGGCAAGCATCCTGTA (sugars lddlddddddddlldl, PS)
(A) 392

(Q) # return recorded caspase activation (% of PBS control) for entry ACTGCCTTCTTAC (sugars l2 d1 l1 d6 l3, PS)
(A) 166

(Q) # return recorded caspase activation (% of PBS control) for entry TGGCAAGCATCCTGTA (sugars l1 d10 l1 d2 l2, PS)
(A) 261

(Q) # return recorded caspase activation (% of PBS control) for entry ACTGCCTTCTTAC (sugars l1 d2 l1 d7 l2, PS)
(A) 112

(Q) # return recorded caspase activation (% of PBS control) for entry GTTACTGCCTTCTTAC (sugars l5 d10 l1, PS)
(A) 284

(Q) # return recorded caspase activation (% of PBS control) for entry GCAAGCATCCTGT (sugars l1 d10 l2, PS)
(A) 112

(Q) # return recorded caspase activation (% of PBS control) for entry GTTACTGCCTTCTTAC (sugars ldllddddddddlddl, PS)
(A) 183

(Q) # return recorded caspase activation (% of PBS control) for entry TGGCAAGCATCCTGTA (sugars ldllldddddddlldl, PS)
(A) 440

(Q) # return recorded caspase activation (% of PBS control) for entry GGCAAGCATCCTG (sugars l1 d9 l1 d1 l1, PS)
(A) 390

(Q) # return recorded caspase activation (% of PBS control) for entry TGGCAAGCATCCTGTA (sugars l4 d7 l1 d1 l3, PS)
(A) 522

Consider the following items and state reported caspase activation (% of PBS control) for each.
1. GTTACTGCCTTCTTAC (sugars l2 d9 l1 d2 l2, PS)
2. TTACTGCCTTCTT (sugars l4 d7 l2, PS)
3. TGGCAAGCATCCTGTA (sugars l1 d2 l2 d8 l3, PS)
4. GCAAGCATCCTGT (sugars ldllddddddldl, PS)
5. TGGCAAGCATCCTGTA (sugars l5 d6 l5, PS)
6. TGGCAAGCATCCTGTA (sugars lddlldddddddlldl, PS)
7. TGGCAAGCATCCT (sugars l2 d1 l1 d8 l1, PS)
8. GTTACTGCCTTCTTAC (sugars ldlllddddddlldll, PS)

(A)
120
337
419
176
445
409
383
410

---

Target: HIF1A
Assay: HeLa, 100 nM transfected, 24 h, mean of 3
Details: ASO
Bases are written 5' to 3'; sugars and linkages follow in the same order, as letters with counts (s phosphorothioate, o phosphodiester; PS: all linkages phosphorothioate). C may stand for cytosine or 5-methylcytosine; the collection does not tell. l = locked nucleic acid (LNA); d = 2'-deoxy (DNA)
measured_parameter: caspase activation (% of PBS control)
Answers are plain numbers.

Consider the following illustrative entries.
(Q) # return recorded caspase activation (% of PBS control) for entry TACTGCCTTCTTA (sugars l2 d1 l1 d7 l2, PS)
(A) 295

(Q) # return recorded caspase activation (% of PBS control) for entry CAAGCATCCTGTA (sugars l1 d1 l2 d8 l1, PS)
(A) 145

(Q) # return recorded caspase activation (% of PBS control) for entry GTTACTGCCTTCTTAC (sugars llldldddddddlldl, PS)
(A) 341

(Q) # return recorded caspase activation (% of PBS control) for entry TGGCAAGCATCCT (sugars l2 d9 l2, PS)
(A) 434

(Q) # return recorded caspase activation (% of PBS control) for entry TGGCAAGCATCCT (sugars l1 d1 l1 d7 l3, PS)
(A) 127

(Q) # return recorded caspase activation (% of PBS control) for entry TGGCAAGCATCCTGTA (sugars lldldddddddlldll, PS)
(A) 410

(Q) # return recorded caspase activation (% of PBS control) for entry GTTACTGCCTTCTTAC (sugars l1 d1 l1 d11 l2, PS)
(A) 97.8

(Q) # return recorded caspase activation (% of PBS control) for entry TGGCAAGCATCCTGTA (sugars ldddlddddddldddl, PS)
(A) 159

Consider the following items and state reported caspase activation (% of PBS control) for each.
1. TGGCAAGCATCCTGTA (sugars ldlllddddddldldl, PS)
2. TGGCAAGCATCCTGTA (sugars llddlddddddldldl, PS)
3. ACTGCCTTCTTAC (sugars l3 d7 l3, PS)
4. TGGCAAGCATCCTGTA (sugars l2 d9 l5, PS)
5. TACTGCCTTCTTA (sugars l1 d2 l1 d8 l1, PS)

(A)
1: 455; 2: 390; 3: 403; 4: 368; 5: 118

Consider the following items and state reported caspase activation (% of PBS control) for each.
1. TGGCAAGCATCCTGTA (sugars l2 d2 l1 d6 l5, PS)
2. GCAAGCATCCTGT (sugars l1 d1 l2 d6 l3, PS)
3. TGGCAAGCATCCT (sugars l1 d2 l1 d8 l1, PS)
4. TGGCAAGCATCCTGTA (sugars lllldddddddldldl, PS)
5. TGGCAAGCATCCTGTA (sugars l4 d7 l2 d2 l1, PS)
6. GTTACTGCCTTCTTAC (sugars ldlldddddddddldl, PS)
7. ACTGCCTTCTTAC (sugars l1 d11 l1, PS)
8. TGGCAAGCATCCTGTA (sugars l1 d2 l2 d7 l4, PS)

(A)
[432, 186, 178, 372, 528, 142, 130, 435]

Consider the following items and state reported caspase activation (% of PBS control) for each.
1. GTTACTGCCTTCTTAC (sugars llldlddddddllddl, PS)
2. GTTACTGCCTTCTTAC (sugars l1 d2 l2 d7 l4, PS)

(A)
1: 308; 2: 361

---

Target: HIF1A
Assay: HeLa, 100 nM transfected, 24 h, mean of 3
Details: ASO
Bases are written 5' to 3'; sugars and linkages follow in the same order, as letters with counts (s phosphorothioate, o phosphodiester; PS: all linkages phosphorothioate). C may stand for cytosine or 5-methylcytosine; the collection does not tell. l = locked nucleic acid (LNA); d = 2'-deoxy (DNA)
# if value of caspase activation (% of PBS control) reaches 300, tag True; if it stays below, tag False

// below: answered sequences
(Q) I'd appreciate it if you could say whether GTTACTGCCTTCTTAC (sugars ldldlddddddlldll, PS) has caspase activation (% of PBS control) at least equal to 300.
(A) False

(Q) I'd appreciate it if you could say whether GCAAGCATCCTGT (sugars l3 d9 l1, PS) has caspase activation (% of PBS control) at least equal to 300.
(A) True

(Q) I'd appreciate it if you could say whether TGGCAAGCATCCTGTA (sugars l2 d2 l1 d7 l4, PS) has caspase activation (% of PBS control) at least equal to 300.
(A) True

(Q) I'd appreciate it if you could say whether GTTACTGCCTTCTTAC (sugars ldlddddddddldldl, PS) has caspase activation (% of PBS control) at least equal to 300.
(A) False

(Q) I'd appreciate it if you could say whether TGGCAAGCATCCTGTA (sugars l1 d3 l1 d9 l2, PS) has caspase activation (% of PBS control) at least equal to 300.
(A) False

Pending sequence:
(Q) I'd appreciate it if you could say whether TGGCAAGCATCCT (sugars l1 d10 l2, PS) has caspase activation (% of PBS control) at least equal to 300.
(A) False
